- System: KYSE-70 esophageal cancer cell line
- Experiment notes: Cell growth inhibition of KYSE-70 (Sulforhodamine B)
- Assay type: cell-based
- Condition label: Homo sapiens; KYSE-70, 72 hours; read-out: KYSE70 GI50
Readout name: GI50

Some solved cases for reference:
{"columns": ["Compound", "GI50"],
 "data": [
  ["COc1cc(-c2cc(N3CCC4(CCNC4=O)CC3)n3ncnc(N)c23)ccc1NC(=O)OC(C)(C)C", "≤ 100 nM"],
  ["COc1cc(-c2cc(N[C@H]3CC[C@H](N(C)C)C3)n3ncnc(N)c23)ccc1NC(=O)OC(C)(C)C", "100 to 1000 nM"]
]}

Please report GI50 for the following compound: `COc1cc(-c2cc(N[C@H]3CC[C@H](N)C3)n3ncnc(N)c23)ccc1NC(=O)OC(C)(C)C` 100 to 1000 nM

Please report GI50 for the following compound: COc1cc(-c2cc(N3CC4CC(C3)C4N)n3ncnc(N)c23)ccc1NC(=O)OC(C)(C)C (stereo not drawn) 100 to 1000 nM

* * *

- System: YES1 kinase (Homo sapiens)
- Experiment notes: YES1 kinase inhibition, ADP Glo assay (Promega)
- Type: biochemical
- Condition label: compound 10 nM; read-out: YES1 enzyme, % inhibition, 10 nM
Readout name: inhibition at 0.01 µM (%)

{"columns": ["Smiles notation", "Reading"],
 "data": [
  ["COc1cc(-c2cc(N3CCC4(CC3)CC(=O)N4)n3ncnc(N)c23)ccc1NC(=O)OC(C)(C)C", 23]
]}

(1) COc1cc(-c2cc(N3CCC(C(=O)O)CC3)n3ncnc(N)c23)ccc1NC(=O)OC(C)(C)C
(2) COc1cc(-c2cc(N3CC[C@H](N)[C@@H](C(F)(F)F)C3)n3ncnc(N)c23)ccc1NC(=O)OC(C)(C)C
1 or 2 : whose inhibition at 0.01 µM is greater? Could you answer with the label of the item you picked? 2
(2: 59%, 1: 34%)

* * *

- System: YES1 kinase (Homo sapiens, UniProt P07947)
- Sequence (P07947 whole entry): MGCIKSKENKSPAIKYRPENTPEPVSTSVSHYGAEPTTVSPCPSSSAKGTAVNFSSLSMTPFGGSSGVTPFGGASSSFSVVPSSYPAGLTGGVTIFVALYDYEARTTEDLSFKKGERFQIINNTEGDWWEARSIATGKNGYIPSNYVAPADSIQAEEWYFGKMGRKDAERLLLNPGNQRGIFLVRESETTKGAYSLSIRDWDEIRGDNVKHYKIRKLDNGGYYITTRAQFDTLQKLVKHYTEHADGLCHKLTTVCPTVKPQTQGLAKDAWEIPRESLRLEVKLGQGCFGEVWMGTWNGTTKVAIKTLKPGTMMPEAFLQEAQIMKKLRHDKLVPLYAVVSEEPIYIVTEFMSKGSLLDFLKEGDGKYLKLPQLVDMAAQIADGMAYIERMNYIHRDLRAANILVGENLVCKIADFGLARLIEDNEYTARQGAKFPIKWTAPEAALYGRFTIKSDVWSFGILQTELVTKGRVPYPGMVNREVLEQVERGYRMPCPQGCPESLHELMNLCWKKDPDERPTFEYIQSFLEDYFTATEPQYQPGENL
- Experiment notes: YES1 kinase inhibition, ADP Glo assay (Promega)
- Assay type: biochemical
- Condition label: compound 10 nM; read-out: YES1 enzyme, % inhibition, 10 nM
Readout name: inhibition at 0.01 µM (%)

{"columns": ["Smiles notation", "Unit of measure", "inhibition at 0.01 µM"],
 "data": [
  ["CN(C)C1CCN(c2cc(-c3ccc(Oc4ccccc4)cc3)c3c(N)ncnn23)CC1", "%", 64],
  ["COc1cc(-c2cc(N3CCC(N)CC3)n3ncnc(N)c23)ccc1NC(=O)OC(C)(C)C", "%", 65],
  ["CCNC1CCN(c2cc(-c3ccc(NC(=O)OC(C)(C)C)c(OC)c3)c3c(N)ncnn23)CC1", "%", 66],
  ["CN[C@@H]1CCN(c2cc(-c3ccc(NC(=O)OC(C)(C)C)c(OC)c3)c3c(N)ncnn23)C[C@@H]1F", "%", 61]
]}

* * *

- System: YES1 kinase (Homo sapiens)
- Experiment notes: YES1 kinase inhibition, ADP Glo assay (Promega)
- Type: biochemical
- Condition label: compound 100 nM; read-out: YES1 enzyme, % inhibition, 100 nM
Readout name: inhibition at 0.1 µM (%)

Some solved cases for reference:
{"columns": ["Compound", "System", "Readout name", "Reading"],
 "data": [
  ["COc1cc(-c2cc(N3CC4(CCN(C)C4)C3)n3ncnc(N)c23)ccc1NC(=O)OC(C)(C)C", "YES1 kinase (Homo sapiens)", "inhibition at 0.1 µM", 89],
  ["COc1cc(-c2cc(N3CC[C@H](N)[C@@H](C(F)(F)F)C3)n3ncnc(N)c23)ccc1NC(=O)OC(C)(C)C", "YES1 kinase (Homo sapiens)", "inhibition at 0.1 µM", 78],
  ["CN(C)C1CCN(c2cc(-c3ccc(Oc4ccccc4)cc3)c3c(N)ncnn23)CC1", "YES1 kinase (Homo sapiens)", "inhibition at 0.1 µM", 90],
  ["COc1cc(-c2cc(N3CCC(N)CC3)n3ncnc(N)c23)ccc1NC(=O)OC(C)(C)C", "YES1 kinase (Homo sapiens)", "inhibition at 0.1 µM", 86],
  ["COc1cc(-c2cc(N3CCC4(CC3)CN(C)C4)n3ncnc(N)c23)ccc1NC(=O)OC(C)(C)C", "YES1 kinase (Homo sapiens)", "inhibition at 0.1 µM", 92]
]}

(A) COc1cc(-c2cc(N3CCC(CN(C)C)C3)n3ncnc(N)c23)ccc1NC(=O)OC(C)(C)C (stereo not shown)
(B) COc1cc(-c2cc(-c3ccc(N(C)C)c(F)c3)n3ncnc(N)c23)ccc1NC(=O)OC(C)(C)C
A or B : whose inhibition at 0.1 µM is greater? Could you answer with the label of the item you picked? A

* * *

- Tested on: KYSE-70 esophageal cancer cell line
- Experiment notes: Cell growth inhibition of KYSE-70 (Sulforhodamine B)
- Format: cell-based
- Condition label: Homo sapiens; KYSE-70, 72 hours; read-out: KYSE70 GI50
Reported GI50 is given for each of the following compounds.

Some solved cases for reference:
{"columns": ["Compound", "Reading"],
 "data": [
  ["CCC1(N)CCN(c2cc(-c3ccc(NC(=O)OC(C)(C)C)c(OC)c3)c3c(N)ncnn23)CC1 [Example 82]", "≤ 100 nM"],
  ["CNC1CCN(CCc2cc(-c3ccc(NC(=O)OC(C)(C)CF)c(OC)c3)c3c(N)ncnn23)CC1 [Example 67]", "100 to 1000 nM"],
  ["COc1cc(-c2cc(N3CCC(C)(N)CC3)n3ncnc(N)c23)ccc1NC(=O)OC(C)(C)C [Example 45]", "≤ 100 nM"],
  ["COc1cc(-c2cc(NC[C@H]3CC[C@@H](N)C3)n3ncnc(N)c23)ccc1NC(=O)OC(C)(C)C [Example 110]", "100 to 1000 nM"],
  ["COc1cc(-c2cc(N3CCN(C4CC4)CC3)n3ncnc(N)c23)ccc1NC(=O)OC(C)(C)C [Example 17]", "1000 to 10000 nM"],
  ["COc1cc(-c2cc(N3CCC4(CCN(C)CC4)C3)n3ncnc(N)c23)ccc1NC(=O)OC(C)(C)C [Example 36]", "100 to 1000 nM"],
  ["COc1cc(-c2cc(N3CCC(CO)CC3)n3ncnc(N)c23)ccc1NC(=O)OC(C)(C)C [Example 102]", "100 to 1000 nM"],
  ["CC(C)(C)OC(=O)Nc1ccc(-c2cc(N3CCC(N)CC3)n3ncnc(N)c23)c2c1OCO2 [Example 73]", "≤ 100 nM"],
  ["COc1cc(-c2c(C)c(N3CCC(N)CC3)n3ncnc(N)c23)ccc1NC(=O)OC(C)(C)CF [Example 60]", "≤ 100 nM"],
  ["COc1cc(-c2cc(CCN3CCC(N)CC3)n3ncnc(N)c23)ccc1NC(=O)OC(C)(C)CF [Example 68]", "≤ 100 nM"]
]}

Quote KYSE-70 esophageal cancer cell line GI50 for entry CNC(=O)C1CCN(c2cc(-c3ccc(NC(=O)OC(C)(C)C)c(OC)c3)c3c(N)ncnn23)CC1 [Example 95] . 100 to 1000 nM

Quote KYSE-70 esophageal cancer cell line GI50 for entry COc1cc(-c2cc(N3CC4CC3CC4N)n3ncnc(N)c23)ccc1NC(=O)OC(C)(C)C (stereo not drawn) [Example 51] . 100 to 1000 nM

Quote KYSE-70 esophageal cancer cell line GI50 for entry COc1cc(-c2cc(N3CCC4(CCCN4)CC3)n3ncnc(N)c23)ccc1NC(=O)OC(C)(C)C [Example 23] . ≤ 100 nM

Quote KYSE-70 esophageal cancer cell line GI50 for entry COc1cc(-c2cc(CCN3CCC(N)CC3)n3ncnc(N)c23)ccc1NC(=O)OC(C)(C)C [Example 100] . ≤ 100 nM

Quote KYSE-70 esophageal cancer cell line GI50 for entry COc1cc(-c2cc(N3CCC(CN(C)C)CC3)n3ncnc(N)c23)ccc1NC(=O)OC(C)(C)C [Example 19] . ≤ 100 nM

Quote KYSE-70 esophageal cancer cell line GI50 for entry COc1cc(-c2c(F)c(N3CCC(N(C)C)CC3)n3ncnc(N)c23)ccc1NC(=O)OC(C)(C)C [Example 128] . ≤ 100 nM

Quote KYSE-70 esophageal cancer cell line GI50 for entry COc1cc(-c2cc(N3CCC(C)(CN)CC3)n3ncnc(N)c23)ccc1NC(=O)OC(C)(C)C [Example 123] . ≤ 100 nM

Quote KYSE-70 esophageal cancer cell line GI50 for entry COc1cc(-c2cc(N3CCC(N)C4(CC4)C3)n3ncnc(N)c23)ccc1NC(=O)OC(C)(C)C (stereo not drawn) [Example 80] . 100 to 1000 nM

Quote KYSE-70 esophageal cancer cell line GI50 for entry COc1cc(-c2cc(NC3CCNCC3)n3ncnc(N)c23)ccc1NC(=O)OC(C)(C)C [Example 120] . 100 to 1000 nM

Quote KYSE-70 esophageal cancer cell line GI50 for entry CNCCC1CCN(c2cc(-c3ccc(NC(=O)OC(C)(C)C)c(OC)c3)c3c(N)ncnn23)CC1 [Example 108] . ≤ 100 nM

Quote KYSE-70 esophageal cancer cell line GI50 for entry COc1cc(-c2cc(N[C@@H]3CC[C@H](CN)C3)n3ncnc(N)c23)ccc1NC(=O)OC(C)(C)C [Example 111] . > 10000 nM

Quote KYSE-70 esophageal cancer cell line GI50 for entry CNCCC1CCN(c2c(C)c(-c3ccc(NC(=O)OC(C)(C)CF)c(OC)c3)c3c(N)ncnn23)CC1 [Example 63] . ≤ 100 nM

Quote KYSE-70 esophageal cancer cell line GI50 for entry COc1cc(-c2cc(N3CC4(CCN(C)CC4)C3)n3ncnc(N)c23)ccc1NC(=O)OC(C)(C)C [Example 38] . ≤ 100 nM

Quote KYSE-70 esophageal cancer cell line GI50 for entry COc1cc(-c2cc(-c3ccc4c(c3)OCCN4C)n3ncnc(N)c23)ccc1NC(=O)OC(C)(C)C [Example 7] . 1000 to 10000 nM

Quote KYSE-70 esophageal cancer cell line GI50 for entry Nc1ncnn2c(N3CCC(N)CC3)cc(-c3ccc(Oc4ccccc4)cc3)c12 [Example 135] . ≤ 100 nM

Quote KYSE-70 esophageal cancer cell line GI50 for entry COc1cc(-c2cc(N3CCC(N)(C(F)(F)F)CC3)n3ncnc(N)c23)ccc1NC(=O)OC(C)(C)C [Example 83] . 100 to 1000 nM

Quote KYSE-70 esophageal cancer cell line GI50 for entry CNCCC1CCN(c2cc(-c3ccc(NC(=O)OC(C)(C)CF)c(OC)c3)c3c(N)ncnn23)CC1 [Example 66] . ≤ 100 nM

Quote KYSE-70 esophageal cancer cell line GI50 for entry COc1cc(-c2cc(N3C[C@@H]4[C@H](C3)[C@H]4N(C)C)n3ncnc(N)c23)ccc1NC(=O)OC(C)(C)C [Example 42] . ≤ 100 nM

Quote KYSE-70 esophageal cancer cell line GI50 for entry COc1cc(-c2cc(-c3ccc4c(c3)oc(=O)n4C)n3ncnc(N)c23)ccc1NC(=O)OC(C)(C)C [Example 9] . 1000 to 10000 nM

Quote KYSE-70 esophageal cancer cell line GI50 for entry COc1cc(-c2cc(-c3ccc(N(C)C)cc3)n3ncnc(N)c23)ccc1NC(=O)OC(C)(C)C [Example 1] . 1000 to 10000 nM
